experiment: inhibitors of TNFa-induced NFkB p65 translocation, primary screen, imaging, HUVEC, MLSMR starter and 10KST1 sets (AID 438); details: HUVEC TNFa-induced p65 nuclear translocation; measured here: nuclei count (cytotoxicity indicator), at 2.08 µM;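 further: compound added about 3h40 before a 20 min TNFalpha stimulation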
cell count: recorded values
QUANTITY_KIND: cell count

• Cc1ccc(-c2ccc(/C=N/n3cnnc3)o2)cc1Cl = 432
• CCOC(=O)c1c(C)oc2ccc(O)c(CN(C)C)c12 = 663
• Clc1ccc(SCCn2ccnc2)cc1 = 481
• C=CCOc1ccc(/C(O)=C2\C(=O)C(=O)N(CCOC)C2c2cccnc2)cc1 (stereo unspecified) = 640
• O=C(Cn1nc(-c2ccc(Cl)cc2)ccc1=O)NCCCN1CCN(Cc2ccccc2)CC1 = 518
• COCCCNC(=O)c1ccc2c(c1)OCO2 = 391
• N#Cc1c(N)nc(SCc2ccncc2)c(C#N)c1-c1cccs1 = 321
• Cc1cc(C)cc(NC(=O)N2CCC(c3nc4ccccc4o3)CC2)c1 = 405
• Cc1cc(C)cc(NS(=O)(=O)c2ccc3[nH]cc(C(=O)NCc4ccco4)c(=O)c3c2)c1 = 416
• CCCC(=O)Nc1ccccc1NC(=O)CN(C)S(=O)(=O)c1ccc(C)cc1 = 182
• O=S(=O)(c1ccccc1)N1CCN(C2CCCCCCC2)CC1 = 221

###

assay: TLR3 IRF3 reporter activation blockers – cell-based, poly I:C stimulus, luciferase, 10K MLSCN set, primary screen (AID 602277); details: HEK293-TLR3 RL24 IRF3 luciferase reporter, at 10 µM, stronger effect = higher value
QUANTITY_KIND: inhibition (%)

- O=S(=O)(c1ccccc1)N1CCN(C2CCCCCCC2)CC1: -10
- CC(c1nnc(SCC(=O)Nc2sccc2C#N)n1-c1ccc(Cl)cc1)N(C)C (stereo not drawn): 25.1
- Cc1cc2oc(=O)cc(CN3CCN(Cc4ccc5c(c4)OCO5)CC3)c2cc1C: 27
- C=CCn1c(=O)/c(=C/c2ccc(O)cc2)s/c1=C(/C#N)c1nnc2n1CCCCC2: -30
- COc1ccc(-c2cc(C(F)(F)F)nc(SCC(=O)NCc3ccco3)n2)cc1OC: 23.2
- COc1cccc(CN(C)CC(=O)NC(=O)NCc2ccco2)c1: -18.8
- COc1ccc(S(=O)(=O)NC2CCCCC2)c(C)c1C: 26.9
- C=C(C)COc1ccc(-c2nc(N)ncc2Oc2ccccc2OCC)c(O)c1: -3.29
- CCN1C(=O)OC2(CCCCC2)C1(C)O (stereo not drawn): 8.64
- CC(=O)N(c1ccc(N(C(C)=O)S(=O)(=O)c2cccs2)cc1)S(=O)(=O)c1cccs1: 7.23
- CCOc1ccc(C(c2nnnn2Cc2ccccc2)N2CCN(C(=O)c3ccco3)CC2)cc1 (stereo not drawn): 9.07
- O=C(COC(=O)c1cc(S(=O)(=O)N2CCOCC2)ccc1O)NCC1CCCO1 (stereo not drawn): 24.6
- CCOC(=O)c1cccc(NC(=O)CSc2nnc(-c3ccoc3C)n2CCOC)c1: 27.2
- COc1ccc(CCN(C)CCCC(C#N)(c2ccc(OC)c(OC)c2)C(C)C)cc1OC (stereo not drawn): 27
- C/C(N)=C(\C#N)C(=O)NCCc1ccccn1: 13.8
- CCC(C)(C)n1nnnc1C(c1ccccc1OC)N1CCSCC1 (stereo not drawn): 23.7
- CCn1c(=O)cc(SCC(=O)NCC2CCCO2)c2ccccc21 (stereo not drawn): 34.6
- Cc1nc(NC2=NCN(CCCN3CCOCC3)CN2)nc2c(C)cccc12: 31.4
- Cc1ccc(OCC(=O)N2CCN(C(=O)CCC3CCCC3)CC2)cc1: 11.5
- C1CCC2=NCCCN2CC1: 20.9
- CCOc1ccc2nc(S(N)(=O)=O)sc2c1: -17
- CCN1CCN(C(=O)c2ccc3c(=O)n(C4CCCC4)c(=S)[nH]c3c2)CC1: -6.81
- O=C(Cn1ccc2ccccc2c1=O)NCCC(=O)N1CCN(C2CCCCC2)CC1: 18.5
